Listed compounds paired with reported viability, T/C
System: 922993-354-T-J3-PDC complex spheroid viability
Assay: Anticancer human tumor 922993-354-T-J3-PDC patient-derived endometrial carcinoma cell line growth inhibition [POLQ]
Conditions: second compound 3.16 µM; first compound 1 µM; active compounds read low
Could you give me the number in %? Just the number is fine.

Answered cases to consult:
>  <compound>
COc1cc(C2c3cc4c(cc3C(OC3OC5COC(C)OC5C(O)C3O)C3COC(=O)C23)OCO4)cc(OC)c1O (stereo not given) + Nc1ccc(C#CCN(C(=O)Cc2ncc(C(F)(F)F)cc2C(F)(F)F)c2ccc(F)cc2)nn1

>  <unit.symbol>
%

>  <viability, T/C>
95.6

$$$$
>  <compound>
CCc1cc2c(N3CCc4c(cc(Cn5ccnc5)cc4-c4cn(C)nc4C(F)(F)F)C3=O)ccnc2c(OC)n1 + COC1C(OC(N)=O)C(O)C(Oc2ccc3c(O)c(NC(=O)c4ccc(O)c(CC=C(C)C)c4)c(=O)oc3c2C)OC1(C)C

>  <unit.symbol>
%

>  <viability, T/C>
85.2

$$$$
>  <compound>
CCCS(=O)(=O)Nc1ccc(F)c(C(=O)c2c[nH]c3ncc(-c4ccc(Cl)cc4)cc23)c1F + COC1C(OC(N)=O)C(O)C(Oc2ccc3c(O)c(NC(=O)c4ccc(O)c(CC=C(C)C)c4)c(=O)oc3c2C)OC1(C)C

>  <unit.symbol>
%

>  <viability, T/C>
94.1

$$$$
>  <compound>
COc1ccc([C@@H](O)c2cc(-c3ncnc4cc(N5CCOCC5)ccc34)c(F)cc2Cl)nn1 + COC1C(OC(N)=O)C(O)C(Oc2ccc3c(O)c(NC(=O)c4ccc(O)c(CC=C(C)C)c4)c(=O)oc3c2C)OC1(C)C

>  <unit.symbol>
%

>  <viability, T/C>
87.9

$$$$

Now let's try a different one.
Observed viability, T/C on 922993-354-T-J3-PDC complex spheroid viability, entry O=c1[nH]cc(F)c(=O)[nH]1 + COC1C(OC(N)=O)C(O)C(Oc2ccc3c(O)c(NC(=O)c4ccc(O)c(CC=C(C)C)c4)c(=O)oc3c2C)OC1(C)C , equals 88.2

====

Test system: 922993-354-T-J3-PDC complex spheroid viability
Assay: Anticancer human tumor 922993-354-T-J3-PDC cell line growth inhibition [POLQ];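 further: spheroids exposed to the agents for one week; 100% = DMSO vehicle control wells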
Settings: second compound 3.16 µM; first compound 1 µM; active compounds read low
Under this convention, rule met denotes viability, T/C strictly below 80% and rule not met denotes viability, T/C at or above 80%.

Worked cases, answers included:
>  <compound>
O=C(c1cc(Cc2n[nH]c(=O)c3ccccc23)ccc1F)N1CCN(C(=O)C2CC2)CC1 + Nc1ccc(C#CCN(C(=O)Cc2ncc(C(F)(F)F)cc2C(F)(F)F)c2ccc(F)cc2)nn1

>  <qualitative.label>
rule not met

$$$$
>  <compound>
CCCS(=O)(=O)Nc1ccc(F)c(C(=O)c2c[nH]c3ncc(-c4ccc(Cl)cc4)cc23)c1F + Cc1cccc(N(C)C(=O)C2C(O)CCN2c2nc(C)cc(C(F)(F)F)c2C#N)c1

>  <qualitative.label>
rule not met

$$$$
>  <compound>
CCc1cc2c(N3CCc4c(cc(Cn5ccnc5)cc4-c4cn(C)nc4C(F)(F)F)C3=O)cc(C)nc2c(OC)n1 + Cc1cccc(N(C)C(=O)C2C(O)CCN2c2nc(C)cc(C(F)(F)F)c2C#N)c1

>  <qualitative.label>
rule not met

$$$$

With those in mind, consider the next compound.
Ask: Strictly below 80% in viability, T/C? Nc1ccn(C2OC(CO)C(O)C2(F)F)c(=O)n1 (stereo not given) + COC1C(OC(N)=O)C(O)C(Oc2ccc3c(O)c(NC(=O)c4ccc(O)c(CC=C(C)C)c4)c(=O)oc3c2C)OC1(C)C
Reply: rule met
